System: S. cerevisiae aged cells, superoxide DHE fluorescence, 7 d
Experiment: inhibitors of age-related superoxide in yeast, dose response, powder samples, confirmation (AID 504931)
property-measured: EC50

[[record]]
smiles_structure = "O=C(c1cccc2nc3ccccc3nc12)N1CCOCC1"
measurement = "2.33 µM"

[[record]]
smiles_structure = "Nc1cc2nc3ccccc3nc2cc1N"
measurement = "4.5 µM"

[[record]]
smiles_structure = "c1ccc2[nH]c3cc4ncnc4cc3nc2c1"
measurement = "1.11 µM"

[[record]]
smiles_structure = "CNc1ccc2nc3ccccc3[n+](C)c2c1"
measurement = "6.01 µM"


====

Test system: S. cerevisiae aged cells, superoxide DHE fluorescence, 7 d
Assay: inhibitors of age-related superoxide in yeast, dose response, powder samples, confirmation (AID 504931)
Quick reference for EC50 among some compounds
property-measured: EC50

[[record]]
compound = "Cc1ccc(-c2nn(C(C)(C)C)c3ncnc(N)c23)cc1"
property_measured = "EC50"
measurement = "2250 nM"

[[record]]
compound = "COc1ccc2nc3ccccc3nc2c1N"
property_measured = "EC50"
measurement = "2320 nM"

[[record]]
compound = "CCN(CC)C(=O)c1ccc2nc3ccccc3nc2c1"
property_measured = "EC50"
measurement = "800 nM"

[[record]]
compound = "OCC[n+]1c2ccccc2nc2ccc(N3CCOCC3)cc21"
property_measured = "EC50"
measurement = "10700 nM"

[[record]]
compound = "N#CCc1nn(-c2ccccc2)c2ncnc(N)c12"
property_measured = "EC50"
measurement = "800 nM"

[[record]]
compound = "CCCCCNC(=O)C(=O)C1C(=O)Nc2ccccc21 (configuration not stated)"
property_measured = "EC50"
measurement = "330 nM"

[[record]]
compound = "CC(C)(C)n1nc(-c2ccc(Cl)cc2)c2c(N)ncnc21"
property_measured = "EC50"
measurement = "7980 nM"

[[record]]
compound = "FC(F)(F)c1nc2cc3nc4ccccc4[nH]c3cc2n1"
property_measured = "EC50"
measurement = "510 nM"

[[record]]
compound = "O=C1c2c(O)ccc(O)c2C(=O)c2c(NCCNCCO)ccc(NCCNCCO)c21"
property_measured = "EC50"
measurement = "3410 nM"

[[record]]
compound = "CC(C)OC(=O)c1ccc2nc3ccccc3nc2c1"
property_measured = "EC50"
measurement = "10900 nM"

[[record]]
compound = "COc1ccc2nc3ccccc3nc2c1NC(=O)c1ccccc1Cl"
property_measured = "EC50"
measurement = "1110 nM"

[[record]]
compound = "CCN(CC)C(=O)c1cccc2nc3ccccc3nc12"
property_measured = "EC50"
measurement = "2800 nM"

